Where these numbers come from: patent US5955607A

# measured on: human IsK protein (UniProt P15382+P70057)
# Construct: channel formed with endogenous oocyte KCNQ1; two-microelectrode voltage clamp
# assay method text: cell-based
# details: human IsK expressed in Xenopus oocytes, -10 mV voltage jumps lasting 15 s, room temperature, pH 7.5; Hill equation
For each record, check the reported IC50: if it is below 1000 nM write label 1, else write label 0.

(Q) Here's an entry: COCCOCCN(C1CC(C)(C)Oc2ccc(OCc3ccccc3)cc21)S(C)(=O)=O (stereo not drawn) . Is its IC50 below 1000 nM?
(A) label 0

Further cases:
(Q) Here's an entry: CCCCOc1ccc2c(c1)C(N(CCCOC(=O)NCCN1CCOCC1)S(C)(=O)=O)CC(C)(C)O2 (stereo not drawn) . Is its IC50 below 1000 nM?
(A) label 1

(Q) Here's an entry: CCS(=O)(=O)N(CC(=O)Nc1nc[nH]n1)C1CC(C)(C)Oc2ccc(F)cc21 (stereo not drawn) . Is its IC50 below 1000 nM?
(A) label 1

(Q) Here's an entry: CCS(=O)(=O)N(CC(=O)Nc1ccncc1)C1CC(C)(C)Oc2ccc(F)cc21 (stereo not drawn) . Is its IC50 below 1000 nM?
(A) label 1
